- Test system: CCRIS mutagenicity, Ames/micronucleus/aberration tests
- method description: CCRIS mutagenicity studies
- test settings: Test System: AMES SALMONELLA TYPHIMURIUM; Strain/Indicator: TA98(NR); Metabolic Activation: NONE; Method: PREINCUBATION
Calls of active or inactive are those of the source. How the calls were made is not given here.
Choose one outcome from this list and give only that: True = active, False = inactive

A selection of reference data follows.
In: What is the recorded call for this molecule in the test? O=[N+]([O-])c1ccc2oc3ccc([N+](=O)[O-])cc3c2c1
Out: False

In: Same question, Nc1ccccc1 this time
Out: False

In: Same question, CC(=O)Nc1ccc(Nc2ccc([N+](=O)[O-])cc2)cc1 this time
Out: False

In: Same question, O=C1c2ccccc2-c2cc([N+](=O)[O-])ccc21 this time
Out: True

In: Same question, O=[N+]([O-])c1ccc2nc3cc([N+](=O)[O-])ccc3nc2c1 this time
Out: True

---
In: What is the recorded call for this molecule in the test? O=[N+]([O-])c1ccc2ccc3cccc4c3c2c1C1OC41 (stereo not drawn)
Out: True

In: Same question, Nc1cccc([N+](=O)[O-])c1N this time
Out: True

In: Same question, O=[N+]([O-])c1ccc2c(c1)-c1ccccc1C2 this time
Out: True

----------
- System: CCRIS mutagenicity, Ames/micronucleus/aberration tests
- method description: CCRIS mutagenicity studies
- test settings: Test System: AMES SALMONELLA TYPHIMURIUM; Strain/Indicator: TA1538; Metabolic Activation: HAMSTER, LIVER, S-9, AROCLOR 1254; Method: STANDARD PLATE
Calls of active or inactive are those of the source. The rule behind the calls is not given here.
Choose one outcome from this list and give only that: active, inactive

A selection of reference data follows.
In: What is the recorded call for this compound in the test? Nc1ccccc1
Out: inactive

In: Same question, Nc1ccc2c(c1)C(=O)c1ccccc1C2=O this time
Out: active

In: Same question, CC1(C)COC1=O this time
Out: inactive

In: Same question, O=C/C=C/c1ccccc1 this time
Out: inactive

In: Same question, CCOc1ccc(NC(C)=O)cc1 this time
Out: inactive

---
In: What is the recorded call for this compound in the test? CC(=O)C1(c2ccccc2)CCNCC1
Out: inactive

In: Same question, Clc1cc(Cl)nc(Cl)n1 this time
Out: inactive

In: Same question, Cc1cc(S(=O)(=O)O)ccc1N this time
Out: inactive

----------
- Test system: CCRIS mutagenicity, Ames/micronucleus/aberration tests
- method description: CCRIS mutagenicity studies
- test settings: Test System: AMES SALMONELLA TYPHIMURIUM; Strain/Indicator: TA1535; Metabolic Activation: RAT, LIVER, S-9, PHENOBARBITAL AND 5,6-BENZOFLAVONE; Method: PREINCUBATION
Active and inactive are the calls of the source. No rule for the calls is given here.
Choose one outcome from this list and give only that: active, inactive

In: What is the recorded call for this molecule in the test? O=C1C=Cc2ccccc2C1=O
Out: inactive

In: Same question, O=C1C(Cl)=C(Cl)C(=O)c2ccccc21 this time
Out: inactive

In: Same question, O=C1C=C(O)c2ccccc2C1=O this time
Out: inactive

In: Same question, O=C1C=CC(=O)c2c(O)ccc(O)c21 this time
Out: inactive

In: Same question, COc1ccc(-c2noc(CC(=O)O)c2-c2ccc(OC)cc2)cc1 this time
Out: inactive

In: Same question, CC(C)Br this time
Out: active

In: Same question, Cc1c(F)c(N2CCNC(C)C2)cc2c1c(=O)c(C(=O)O)cn2C1CC1 (configuration not stated) this time
Out: inactive

This collection of values is drawn from PubChem BioAssay AID1259407.
